assay.overview: growth effects on S. cerevisiae YJM789 – YJM789 clinical isolate, OD600, 24 h, basal, primary screen (AID 1089);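 note: growth of clinical yeast isolate S. cerevisiae YJM 789 seeded 1000 cells per well; test concentration not given here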
reported.conditions: higher = more signal, called active from +8 up or from −8 down
measurement.type: z-score
The reply should be a number, written without any unit.

- molecule: "C=CCC(OC(C)=O)[C@@H]1[C@@H](N(Cc2ccc(-c3cccc(C(F)(F)F)c3)o2)C(=O)Cc2ccc(OC)cc2)c2cc(OCCCO)ccc2N1C(=O)c1ccc2ccccc2c1 (some centres undefined)"
  measurement.type: "z-score"
  reported.measurement: 0.514
- molecule: "CN1C(=O)C2C=CC(C(O)c3c(F)cccc3Cl)N(NC(=O)OC(C)(C)C)C2C1=O (centres undefined)"
  measurement.type: "z-score"
  reported.measurement: -0.143
- molecule: "COc1ccccc1CN1C(=O)c2ccccc2[C@@]2(Cc3ccccc3N(CCCN(C)C)C2=O)[C@@H]1c1ccc(CO)cc1"
  measurement.type: "z-score"
  reported.measurement: 0.431

Then there is this molecule:
[ask] Quick one: z-score of "CN(C)CCCC[C@@H]1NC(=O)[C@H]2C[C@@H](C(=O)NCCCCCN)[C@@H](c3cccc(OCCO)c3)N2C1=O" ?
[reply] -0.717

###

measured.on: NADPH oxidase 4 (Homo sapiens)
assay.overview: compounds shifting NOX4 Amplex Red fluorescence – cell-based, HEK293-NOX4, tetracycline-induced, NOX inhibitor project, primary screen (AID 1160)
reported.conditions: HEK293-NOX4, Amplex Red H2O2 fluorescence, 45 min; higher = more signal, called active from +8 up or from −8 down
Y means recorded z-score is 0.0005 or above; N means it is below 0.0005.

Example entries begin here.
- compound: "CC(C)=CCCC(C)=CC(O)C1C=CC2C(=O)N(c3ccccc3)C(=O)C2N1Nc1ccc(C(C)C)cc1 (stereo not given)"
  category.label: "N"
- compound: "CCCC=C(CCC)[C@@H](NS(=O)(=O)c1ccc(Cl)cc1)c1ccc(C(=O)OC)cc1"
  category.label: "Y"
- compound: "C=C(CCCC)/C(=C/C[C@H](OC(C)=O)c1ccccc1OCCO)c1cnc2ccccc2c1"
  category.label: "N"
- compound: "O=C1O[C@@H](c2ccccc2)[C@@H](c2ccccc2)N2[C@@H](c3ccc(OCCO)cc3)[C@]3(C(=O)Nc4ccc(C#CC5=CCCCC5)cc43)[C@@H](C(=O)N3CCCCCCC3)[C@H]12"
  category.label: "Y"
- compound: "O=C1NC(=O)C2C1C=CC(C(O)C=Cc1ccc([N+](=O)[O-])cc1)N2Nc1ccc(Cl)cc1Cl (stereo not given)"
  category.label: "N"
- compound: "C=CCNC(=O)[C@H]1[C@@H]2C(=O)O[C@@H](c3ccccc3)[C@@H](c3ccccc3)N2[C@@H](c2ccc(OCCO)cc2)[C@]12C(=O)Nc1ccc(C#CCC(C(=O)OC)C(=O)OC)cc12"
  category.label: "Y"
- compound: "CC(C)[Si](C#CCCCC#N)(Oc1ccccc1Br)C(C)C"
  category.label: "N"
- compound: "C=CCNC(=O)[C@H]1[C@@H]2C(=O)O[C@@H](c3ccccc3)[C@@H](c3ccccc3)N2[C@@H](c2ccc(O)cc2)[C@]12C(=O)Nc1ccc(C#CCCO)cc12"
  category.label: "N"
- compound: "C=C(CCCC)C(=O)CC[C@H](OC(=O)c1cccnc1)c1ccc(OCCO)cc1"
  category.label: "Y"
- compound: "COCCCNC(=O)[C@]1(Cc2ccccc2)N=C(c2ccc(OCCCO)cc2)O[C@@H]1c1ccccc1CN=[N+]=[N-]"
  category.label: "Y"

[ask] Form field: z-score at least 0.0005? Entry: "NCCCCCNC(=O)[C@H]1C[C@H]2C(=O)N3CCC[C@H]3C(=O)N2[C@H]1c1ccc(O)cc1"
[reply] Y

[ask] Form field: z-score at least 0.0005? Entry: "CC(C)CNC(=O)[C@@]1(Cc2ccccc2I)c2ccccc2C(=O)N(Cc2ccccc2C(F)(F)F)[C@H]1c1ccc(CO)cc1"
[reply] Y

[ask] Form field: z-score at least 0.0005? Entry: CCCCN1CC=CC23O[C@@H]4C=CCCOC(=O)C4[C@H]2C(=O)N(CCCCCO)[C@@H]3C1=O (stereo not given in full)
[reply] Y

[ask] Form field: z-score at least 0.0005? Entry: CCOC(=O)C1=CCC(c2ccc(F)cc2)N(S(=O)(=O)c2ccc(C)cc2)C1 (stereo not given)
[reply] N

[ask] Form field: z-score at least 0.0005? Entry: "CN(C)C(=O)[C@]1(Cc2ccccc2)N=C(c2ccc(OCCCO)cc2)O[C@@H]1c1ccccc1N=[N+]=[N-]"
[reply] N

[ask] Form field: z-score at least 0.0005? Entry: COc1ccc(C(O)C2C=CC3C(=O)N(C)C(=O)C3N2NC(=O)OC(C)(C)C)c2ccccc12 (stereo not given)
[reply] N

[ask] Form field: z-score at least 0.0005? Entry: "C=CCOC(=O)[C@H]1[C@@H]2C(=O)O[C@@H](c3ccccc3)[C@@H](c3ccccc3)N2[C@@H](c2ccc(OCCOC(=O)[C@H]3C[C@H]4C(=O)N[C@@H](CCCCN(C)C)C(=O)N4[C@H]3c3cccc(OCCO)c3)cc2)[C@]12C(=O)Nc1ccc(I)cc12"
[reply] Y

[ask] Form field: z-score at least 0.0005? Entry: CCCC1(C(=O)OC)C=C2C(=C(c3ccccc3)C(=O)C2C)CN1 (stereo not given)
[reply] N

[ask] Form field: z-score at least 0.0005? Entry: "NC(=O)[C@@]1(Cc2ccccc2)N=C(c2ccc(OCCCO)cc2)O[C@H]1c1ccccc1"
[reply] Y

[ask] Form field: z-score at least 0.0005? Entry: "COCCOC(=O)N1C(=O)[C@@]2(c3cc(C#CCCO)ccc31)[C@H](c1ccc(OCCO)cc1)N1[C@H](c3ccccc3)[C@H](c3ccccc3)OC(=O)[C@H]1[C@@H]2C(N)=O"
[reply] N

###

measured.on: Torsin-1A (Homo sapiens)
assay.overview: TOR1A wild-type binding on microarray – cell lysate, small-molecule microarray, lysate, 635/667 nm, primary screen (AID 1149)
reported.conditions: COS7 hTOR1A-WT lysate, 635 nm fluorescence, higher = more signal
measurement.type: composite z-score
The reply should be a number, written without any unit.

Previously resolved entries follow.
- compound: "COCCOC(=O)N1C(=O)[C@@]2(c3ccccc31)[C@H](C(N)=O)[C@H]1C(=O)O[C@H](c3ccccc3)[C@H](c3ccccc3)N1[C@@H]2c1ccc(O)cc1"
  composite z-score: 0.603
- compound: "O=C1OCC=C[C@H]2OC34C=CCN(CCN5CCOCC5)C(=O)[C@H]3N(CCO)C(=O)[C@@H]4[C@@H]12 (stereo partly drawn)"
  composite z-score: -0.618
- compound: "C[N+](C)(C)CCCC[C@@H]1NC(=O)[C@@H]2C[C@H](C(=O)NCCCCCCNC(=O)CS)[C@H](c3ccc(O)cc3)N2C1=O"
  composite z-score: 0.296
- compound: "COCC(=C=CC[C@H](O)c1cccc(OCCO)c1)CCO"
  composite z-score: -0.744
- compound: "CC(C)[Si](C#C[Si](C(C)C)(C(C)C)C(C)C)(O[C@H](C)c1cn(Cc2ccccc2)nn1)C(C)C"
  composite z-score: 0.709
- compound: "COC(=O)C[C@H]1O[C@@H](CCc2ccccc2)[C@@H](C)[C@@H]1[Si](C)(C)c1ccc(OC)cc1"
  composite z-score: -0.247
- compound: "NCCCCCCNC(=O)[C@H]1C[C@H]2C(=O)N[C@@H](Cc3ccccc3)C(=O)N2[C@H]1c1cccc(OCCO)c1"
  composite z-score: 1.24
- compound: "C=C(C)[C@@H]1CC=C(C(O)C2C=CC3C(=O)NC(=O)C3N2Nc2ccc(Cl)cc2Cl)CC1 (stereo partly drawn)"
  composite z-score: -0.0124

Then there is this compound:
[ask] Quick one: composite z-score of "O=C(NCCN1CCOCC1)[C@@H]1c2ccccc2C(=O)N(Cc2cc(C(F)(F)F)cc(C(F)(F)F)c2)[C@H]1c1ccc(CO)cc1" ?
[reply] -0.027

###

assay.overview: blockers of DNA damage checkpoint Chk1 activation – imaging, HeLa, hydroxyurea, phospho-Chk1 nuclear intensity, primary screen (AID 1187); note: test concentration not given here
reported.conditions: hydroxyurea-induced phospho-Chk1 immunofluorescence imaging, higher = more signal
Documented z-score across a set of compounds
The reply should be a number, written without any unit.

- compound: "CC(=O)n1cc(C(O)C2C=CC3C(=O)NC(=O)C3N2Nc2ccccn2)c2ccccc21 (centres undefined)"
  z-score: -0.392
- compound: "COC(=O)[C@@]1(Cc2ccccc2)[C@H]2c3cc(C(=O)N(C)C)n(Cc4ccc(OC)c(OC)c4)c3C[C@H]2CN1C(=O)c1ccccc1"
  z-score: 0.614
- compound: "C=C(CCCC)/C(=C/C[C@@H](OC(C)=O)c1cccc(OCCO)c1)c1cnc2ccccc2c1"
  z-score: -0.359
- compound: "COCCOC(=O)N1C(=O)[C@@]2(c3cc(C#CCCO)ccc31)[C@H](c1ccc(O)cc1)N1[C@H](c3ccccc3)[C@H](c3ccccc3)OC(=O)[C@H]1[C@@H]2C(=O)N1CCN(c2ncccn2)CC1"
  z-score: -0.0303
- compound: "CCCC1(C(=O)OC)C=C2C(=C(c3ccccc3)C(=O)C2C)CN1 (centres undefined)"
  z-score: -0.277
- compound: "C=CC[C@]1(C(N)=O)COC(c2ccc(OCCCO)cc2)=N1"
  z-score: -0.351
- compound: "O[C@@H](Cc1ccccc1)[C@@H](/C=C/C1CC1)NCc1cccc(Cl)c1"
  z-score: -0.682
- compound: "COCCOC(=O)N1C(=O)[C@@]2(c3cc(C#CC4(O)CCCCCC4)ccc31)[C@H](c1ccccc1OCCO)N1[C@H](c3ccccc3)[C@H](c3ccccc3)OC(=O)[C@H]1[C@@H]2C(=O)N1CCc2cc(OC)c(OC)cc2C1"
  z-score: 0.27

Then there is this compound:
[ask] Quick one: z-score of "O=C1[C@H]2C=C(I)[C@H](C[C@@H]2OCCCCO)[C@@]12CO2" ?
[reply] -0.203
